- Tested on: mushroom tyrosinase (Sigma T3824)
- procedureText: Mushroom Tyrosinase Inhibition Assay
- Assay type: biochemical
- protocolConditions: 10 μM compound, 300 μM L-Tyrosine, 84 units/mL enzyme, pH 6.5, 15 min at room temperature
- Description: 10 μM compound, 300 μM L-Tyrosine, and 84 units/mL of mushroom tyrosinase (Sigma T3824) were combined into 0.05 M potassium monophosphate buffer at pH=6.5, and incubated for 15 min at room temperature. Absorbance was recorded at 490 nm. % tyrosinase inhibition was calculated as follows: (AbsDMSO−Abscmpd)/AbsDMSO×100. […]
Classes based on Mushroom Tyrosinase (% remaining enzyme activity), % TYR Activity: group 1 = under 10%, group 2 = from 10% up to 80%, group 3 = 80% and over

INSERT INTO results (molecule, group) VALUES
  ('Oc1cc(O)c(Cc2ccccc2)c(C(F)(F)F)c1', 'group 3'),
  ('Cc1cc(O)cc(O)c1Cc1ccccc1', 'group 3'),
  ('Cc1cc(O)cc(O)c1CC1CCCC1', 'group 2'),
  ('Oc1ccc(O)cc1 [Hydroquinone, hydroquinone, reference compound]', 'group 3'),
  ('Cc1cc(O)cc(O)c1 [Compound 5MR, 5-methylresorcinol, reference compound]', 'group 3'),
  ('O=c1cc(CO)occ1O [Kojic Acid, kojic acid, reference compound]', 'group 3'),
  ('Cc1cc(O)cc(O)c1C1CC1', 'group 2'),
  ('Cc1cc(O)cc(O)c1C1CCCC1', 'group 2'),
  ('CC(C)c1ccc(O)cc1O [Compound 4IPR, 4-isopropylresorcinol, reference compound]', 'group 1'),
  ('Cc1cc(O)cc(O)c1C1CCCCC1', 'group 2'),
  ('Oc1cc(O)c(C2CCCCC2)c(F)c1 [4,5EFR, 4-cyclohexyl-5-fluorobenzene-1,3-diol]', 'group 1'),
  ('CCCCCCc1ccc(O)cc1O [Compound 4HR, 4-hexylresorcinol, reference compound]', 'group 1'),
  ('Oc1ccc(C2CCCCC2)c(O)c1 [Compound 4CHR, 4-cyclohexylresorcinol, reference compound]', 'group 1');

###

- Tested on: mushroom tyrosinase (Sigma T3824)
- procedureText: Mushroom Tyrosinase Inhibition Assay
- Type: biochemical
- protocolConditions: 10 μM compound, 300 μM L-Tyrosine, 84 units/mL enzyme, pH 6.5, 15 min at room temperature
endpointName: Mushroom Tyrosinase (% remaining enzyme activity), % TYR Activity (%)

INSERT INTO results (compound, unitinfo, measuredvalue) VALUES
  ('CCc1ccc(O)cc1O [Compound 4ER, 4-ethyl resorcinol, reference compound]', '%', 2),
  ('Oc1cc(O)c(C2CCCCC2)c(C(F)(F)F)c1 [4,5CHTFMR]', '%', 100),
  ('CCC(C)c1c(C)cc(O)cc1O (centres unmarked) [4,5sBMR, 4-sec-butyl-5-methylbenzene-1,3-diol]', '%', 100),
  ('Oc1cc(O)c(C2CCCCC2)c(F)c1 [4,5CHFR, 4-cyclohexyl-5-fluorobenzene-1,3-diol]', '%', 1),
  ('CCc1c(C)cc(O)cc1O [4,5EMR, 4-ethyl-5-methylbenzene-1,3-diol]', '%', 93);

###

- Test system: MelanoDerm (Mel-300-B)
- procedureText: Mattek 3D Skin Equivalents, MelanoDerm (Mel-300-B) assay
- Format: cell-based, human
- protocolConditions: 30 μM in culture medium, every other day, 14 days
endpointName: MatTek Assay (% Melanin), % Melanin 3D EpiDerm (%)

INSERT INTO results (compound, measuredvalue) VALUES
  ('Cc1cc(O)cc(O)c1C1CCCCC1', 44),
  ('CCCCCCc1c(C)cc(O)cc1O', 68),
  ('Cc1cc(O)cc(O)c1Cc1ccccc1', 61),
  ('CCc1c(O)cc(O)cc1C(F)(F)F', 66),
  ('Cc1cc(O)cc(O)c1CC(F)(F)F', 72),
  ('Cc1cc(O)cc(O)c1CC1CCCC1', 72),
  ('Oc1ccc(O)cc1 [Hydroquinone, hydroquinone, reference compound]', 92),
  ('CC(C)c1ccc(O)cc1O [Compound 4IPR, 4-isopropylresorcinol, reference compound]', 46),
  ('Oc1cc(O)c(Cc2ccccc2)c(C(F)(F)F)c1', 75),
  ('CCC(C)c1c(C)cc(O)cc1O (centres unmarked)', 67),
  ('Cc1cc(O)cc(O)c1C1CCCC1', 55),
  ('Oc1cc(O)c(C2CCCCC2)c(F)c1', 81),
  ('CCc1c(C)cc(O)cc1O', 79),
  ('Cc1cc(O)cc(O)c1C(C)c1ccccc1 (centres unmarked)', 62),
  ('CCc1ccc(O)cc1O [Compound 4ER, 4-ethyl resorcinol, reference compound]', 61),
  ('Cc1cc(O)cc(O)c1C(C)C', 72),
  ('CCCCCCc1ccc(O)cc1O [Compound 4HR, 4-hexylresorcinol, reference compound]', 72),
  ('Cc1cc(O)cc(O)c1C1CC1', 82),
  ('Oc1ccc(C2CCCCC2)c(O)c1 [Compound 4CHR, 4-cyclohexylresorcinol, reference compound]', 36),
  ('O=c1cc(CO)occ1O [Kojic Acid, kojic acid, reference compound]', 100);

Cited source: patent US10470986B2
